Listed below: pIC50 values for each entry.
# assay-system: EGFR exon 20 FQEA Ins A763_V764 (Ba/F3 cells) (Homo sapiens, UniProt P00533, INS763FQEA)
# Construct: expressed in transfected cells; host or cells: Ba/F3 (murine pro-B cells), retroviral transduction, puromycin selection, IL3-independent pool
# Sequence (P00533 with tags, fused parts or gaps INS763FQEA): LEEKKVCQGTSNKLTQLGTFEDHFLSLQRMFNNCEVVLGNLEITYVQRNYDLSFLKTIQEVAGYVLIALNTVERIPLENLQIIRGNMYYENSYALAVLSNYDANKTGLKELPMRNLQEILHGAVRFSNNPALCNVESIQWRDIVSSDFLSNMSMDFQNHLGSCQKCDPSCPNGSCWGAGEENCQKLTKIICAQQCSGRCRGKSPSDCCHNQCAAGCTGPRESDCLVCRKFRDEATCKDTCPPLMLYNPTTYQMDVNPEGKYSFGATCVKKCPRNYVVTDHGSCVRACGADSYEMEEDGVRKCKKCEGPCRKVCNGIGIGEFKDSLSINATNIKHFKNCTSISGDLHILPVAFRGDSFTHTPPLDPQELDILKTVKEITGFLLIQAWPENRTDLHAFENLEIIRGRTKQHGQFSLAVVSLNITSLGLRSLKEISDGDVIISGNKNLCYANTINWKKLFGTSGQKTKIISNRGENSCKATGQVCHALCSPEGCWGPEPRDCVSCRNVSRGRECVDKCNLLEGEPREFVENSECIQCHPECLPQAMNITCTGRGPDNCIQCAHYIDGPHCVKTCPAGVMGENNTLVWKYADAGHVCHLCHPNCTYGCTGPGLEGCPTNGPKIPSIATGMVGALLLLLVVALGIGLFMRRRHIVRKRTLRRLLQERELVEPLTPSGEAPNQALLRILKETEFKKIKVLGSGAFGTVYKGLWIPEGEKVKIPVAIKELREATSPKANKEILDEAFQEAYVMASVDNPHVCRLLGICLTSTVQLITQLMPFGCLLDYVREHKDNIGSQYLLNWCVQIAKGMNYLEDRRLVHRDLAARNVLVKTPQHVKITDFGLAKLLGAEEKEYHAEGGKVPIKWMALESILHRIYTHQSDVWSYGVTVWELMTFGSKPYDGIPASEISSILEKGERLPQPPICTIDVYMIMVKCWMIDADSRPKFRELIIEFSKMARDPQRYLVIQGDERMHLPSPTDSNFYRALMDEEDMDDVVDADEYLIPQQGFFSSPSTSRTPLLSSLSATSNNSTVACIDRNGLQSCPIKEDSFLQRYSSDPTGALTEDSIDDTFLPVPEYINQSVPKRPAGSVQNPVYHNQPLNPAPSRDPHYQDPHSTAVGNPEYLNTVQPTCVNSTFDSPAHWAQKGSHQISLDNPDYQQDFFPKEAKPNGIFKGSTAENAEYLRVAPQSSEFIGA
# protocol: Inhibitor activity on EGFR-dependent cell growth (CellTiter-Glo, 72 h), Ba/F3 EGFR exon 20 FQEA Ins
# Format: cell-based
# details: read-out: BaF3 FQEA IC50
pIC50: −log10 of the molar value.

> print(dat)
                                   compound  reported.result
1  COc1c(F)cccc1Nc1c2c(n(C)c1-c1ccncc1F)CCNC2=O           < 6.00
2  Nc1nccc(-c2[nH]c3c(c2Nc2cccc(F)c2F)C(=O)NCC3)n1     6.00 to 7.00
3  COc1ccc2nccc(-c3[nH]c4c(c3Nc3cccc(Cl)c3OC)C(=O)NCC43CCC3)c2n1           > 7.00
4  COc1c(Cl)cccc1Nc1c(-c2ccncc2F)[nH]c2c1C(=O)NC[C@H]2CC(N)=O     6.00 to 7.00
5  C=CC(=O)N1CC[C@]2(CNC(=O)c3c2[nH]c(-c2ccncc2F)c3Nc2cccc(Cl)c2OC)C1           > 7.00
6  COc1c(Cl)cccc1Nc1c(-c2ccnc(Nc3cn(C)nn3)n2)[nH]c2c1C(=O)NCC2           > 7.00

Give a short answer stating reported pIC50 for COc1c(F)cccc1Nc1c(-c2ccncc2F)[nH]c2c1C(=O)NC[C@H]2C[C@H]1CCO1 [Compound 422d] .
6.00 to 7.00

Hello, please tell me recorded pIC50 for this one: "COc1c(Cl)cccc1Nc1c(-c2ccnc3cnc(OC4CC4)nc23)[nH]c2c1C(=O)NCC2"
> 7.00

* * *

# assay-system: EGFR WT (Ba/F3 cells) (Homo sapiens, UniProt P00533)
# Sequence (P00533 25-1210): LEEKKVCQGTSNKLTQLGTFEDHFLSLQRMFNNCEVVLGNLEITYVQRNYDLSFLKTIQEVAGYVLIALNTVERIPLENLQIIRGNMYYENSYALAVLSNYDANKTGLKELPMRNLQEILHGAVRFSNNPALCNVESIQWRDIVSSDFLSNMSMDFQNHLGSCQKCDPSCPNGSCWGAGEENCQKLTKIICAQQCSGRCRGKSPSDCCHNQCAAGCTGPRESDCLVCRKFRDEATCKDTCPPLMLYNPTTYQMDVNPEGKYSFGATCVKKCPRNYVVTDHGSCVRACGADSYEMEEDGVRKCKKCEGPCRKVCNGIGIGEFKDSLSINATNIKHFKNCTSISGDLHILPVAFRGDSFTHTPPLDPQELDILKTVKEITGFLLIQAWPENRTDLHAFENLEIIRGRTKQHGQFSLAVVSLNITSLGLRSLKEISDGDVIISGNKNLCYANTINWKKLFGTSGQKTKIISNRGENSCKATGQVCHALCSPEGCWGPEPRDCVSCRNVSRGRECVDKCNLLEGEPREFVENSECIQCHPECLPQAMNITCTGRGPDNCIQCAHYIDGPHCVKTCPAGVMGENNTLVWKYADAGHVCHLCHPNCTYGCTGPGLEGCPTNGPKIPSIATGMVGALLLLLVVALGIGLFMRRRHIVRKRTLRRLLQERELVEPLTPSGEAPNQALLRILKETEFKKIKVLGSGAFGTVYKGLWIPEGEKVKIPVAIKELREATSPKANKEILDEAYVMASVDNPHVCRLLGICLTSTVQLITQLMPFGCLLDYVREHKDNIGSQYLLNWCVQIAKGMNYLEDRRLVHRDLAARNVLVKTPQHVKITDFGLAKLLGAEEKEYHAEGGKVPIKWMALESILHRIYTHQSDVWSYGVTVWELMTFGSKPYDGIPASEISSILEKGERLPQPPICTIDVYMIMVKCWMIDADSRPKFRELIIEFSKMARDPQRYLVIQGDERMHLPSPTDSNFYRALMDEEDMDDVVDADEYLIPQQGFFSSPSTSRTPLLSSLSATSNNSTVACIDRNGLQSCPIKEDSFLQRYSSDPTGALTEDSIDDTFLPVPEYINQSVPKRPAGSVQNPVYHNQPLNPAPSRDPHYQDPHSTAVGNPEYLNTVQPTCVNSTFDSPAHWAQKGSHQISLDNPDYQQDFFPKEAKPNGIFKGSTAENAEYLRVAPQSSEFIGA
# protocol: Inhibitor activity on EGFR-dependent cell growth (CellTiter-Glo, 72 h), Ba/F3 EGFR WT
# details: read-out: BaF3 WT IC50
IC50 values by entry

Worked cases, IC50 given:
> print(dat)
                                   molecule                              assay.system  result.type  reported.result
1  C=CC(=O)N1CC[C@]2(CNC(=O)c3c2[nH]c(-c2ccncc2F)c3Nc2cccc(Cl)c2OC)C1  EGFR WT (Ba/F3 cells) (Homo sapiens, UniProt P00533)         IC50      0.1 to 1 µM
2  COc1c(Cl)cccc1Nc1c(-c2ccnc(NC(=O)C3CC3)n2)[nH]c2c1C(=O)NCC2  EGFR WT (Ba/F3 cells) (Homo sapiens, UniProt P00533)         IC50           > 1 µM
3  COc1c(Cl)cccc1Nc1c(-c2ccncn2)[nH]c2c1C(=O)NCC2C[C@H]1COCCO1 (single isomer, unassigned) [Compound 574]  EGFR WT (Ba/F3 cells) (Homo sapiens, UniProt P00533)         IC50           > 1 µM
4  COc1c(Cl)cccc1Nc1c(-c2ccncc2F)[nH]c2c1C(=O)NCC2CC1CCO1 (single isomer, unassigned) [Compound 785]  EGFR WT (Ba/F3 cells) (Homo sapiens, UniProt P00533)         IC50      0.1 to 1 µM
5  COc1c(Cl)cccc1Nc1c(-c2ccncn2)[nH]c2c1C(=O)NC[C@@H]2C[C@@H]1COCCO1  EGFR WT (Ba/F3 cells) (Homo sapiens, UniProt P00533)         IC50           > 1 µM

Answer with the recorded IC50 of "CCO[C@@H](C)c1ccc2nccc(-c3[nH]c4c(c3Nc3cccc(Cl)c3OC)C(=O)NCC4)c2n1" only.
< 0.1 µM

Please look at this molecule and report its IC50: "COc1c(F)cccc1Nc1c(-c2ccnc3ccc(C)nc23)[nH]c2c1C(=O)NCC2"
0.1 to 1 µM

* * *

# assay-system: EGFR exon 20 SVD Ins D770_N771 (Ba/F3 cells) (Homo sapiens, UniProt P00533, INS770SVD)
# Construct: expressed in transfected cells; host or cells: Ba/F3 (murine pro-B cells), retroviral transduction, puromycin selection, IL3-independent pool
# Sequence (P00533 with tags, fused parts or gaps INS770SVD): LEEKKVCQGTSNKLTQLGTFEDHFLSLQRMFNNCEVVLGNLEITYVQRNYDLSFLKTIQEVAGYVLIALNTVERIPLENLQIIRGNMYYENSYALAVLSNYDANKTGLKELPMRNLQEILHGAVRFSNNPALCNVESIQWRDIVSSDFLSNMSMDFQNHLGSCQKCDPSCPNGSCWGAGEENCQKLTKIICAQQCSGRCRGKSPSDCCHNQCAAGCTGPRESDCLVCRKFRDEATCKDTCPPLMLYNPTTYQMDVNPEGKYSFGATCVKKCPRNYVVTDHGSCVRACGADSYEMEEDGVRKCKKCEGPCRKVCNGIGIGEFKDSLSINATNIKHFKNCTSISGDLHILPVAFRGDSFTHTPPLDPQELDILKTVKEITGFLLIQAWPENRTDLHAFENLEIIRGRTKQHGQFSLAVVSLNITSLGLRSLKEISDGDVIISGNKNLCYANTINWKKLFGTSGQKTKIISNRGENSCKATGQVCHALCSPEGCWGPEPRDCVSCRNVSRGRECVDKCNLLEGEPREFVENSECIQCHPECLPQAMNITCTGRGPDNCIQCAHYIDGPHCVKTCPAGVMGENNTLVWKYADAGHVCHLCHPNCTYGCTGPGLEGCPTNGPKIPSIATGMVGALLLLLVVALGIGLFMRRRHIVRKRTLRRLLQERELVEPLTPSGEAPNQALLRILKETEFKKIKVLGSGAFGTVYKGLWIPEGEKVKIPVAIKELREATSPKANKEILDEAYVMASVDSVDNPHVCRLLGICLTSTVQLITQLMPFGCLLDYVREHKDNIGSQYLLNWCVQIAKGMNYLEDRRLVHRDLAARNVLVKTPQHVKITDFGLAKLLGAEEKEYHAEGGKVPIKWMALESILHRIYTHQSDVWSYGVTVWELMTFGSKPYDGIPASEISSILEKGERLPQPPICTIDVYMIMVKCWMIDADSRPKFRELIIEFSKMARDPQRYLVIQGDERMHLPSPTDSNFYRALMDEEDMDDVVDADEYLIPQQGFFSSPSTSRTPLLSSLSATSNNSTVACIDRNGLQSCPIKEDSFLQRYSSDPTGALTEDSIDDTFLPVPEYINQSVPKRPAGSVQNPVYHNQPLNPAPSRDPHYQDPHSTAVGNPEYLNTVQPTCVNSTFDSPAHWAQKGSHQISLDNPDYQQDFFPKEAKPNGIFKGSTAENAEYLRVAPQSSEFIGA
# protocol: Inhibitor activity on EGFR-dependent cell growth (CellTiter-Glo, 72 h), Ba/F3 EGFR exon 20 SVD Ins
# Type: cell-based
# details: read-out: BaF3 SVD IC50
pIC50: −log10 of the molar value.
result-type: pIC50

> print(dat)
                                   molecule                              assay.system  reported.result
1  COc1c(F)cccc1Nc1c(-c2ccncc2F)[nH]c2c1C(=O)NC[C@@H]2CC1COCCO1 (stereo in doubt) [Compound 525]  EGFR exon 20 SVD Ins D770_N771 (Ba/F3 cells) (Homo sapiens, UniProt P00533, INS770SVD)           > 7.00

Supply pIC50 value. Item: N#Cc1c(F)cccc1Nc1c(-c2ccnc(N)n2)[nH]c2c1C(=O)NCC2 [compound 200]
< 6.00

Read off the recorded pIC50 for COc1ncc2nccc(-c3[nH]c4c(c3Nc3cccc(F)c3OC)C(=O)NC(C(F)(F)F)C4)c2n1 (stereo not drawn) [Compound 595]
6.00 to 7.00

Supply measured pIC50 of COc1c(Cl)cccc1Nc1c(-c2ccnc(NCC(C)(C)O)n2)[nH]c2c1C(=O)NCC2 [compound 288] in your reply.
< 6.00

Give the reported pIC50 for this molecule. COC(=O)N1CC[C@@]2(CNC(=O)c3c2[nH]c(-c2ccncc2F)c3Nc2cccc(Cl)c2OC)C1 [Compound 498]
< 6.00

For the molecule COc1c(Cl)cccc1Nc1c(-c2ccnc(-c3ccncn3)n2)[nH]c2c1C(=O)NCC2 [compound 546] , report pIC50.
6.00 to 7.00

Specify reported pIC50 for the molecule shown: COc1c(Cl)cc(F)cc1Nc1c(-c2ccnc(C)n2)[nH]c2c1C(=O)NC[C@@H]2C[C@@H]1COCCO1 [compound 651]
> 7.00

Let me know recorded pIC50 for C=CC(=O)N1CCC2(CC1)CNC(=O)c1c2[nH]c(-c2ccncc2F)c1Nc1cccc(Cl)c1Cl [Compound 589] , thanks.
> 7.00

Assign pIC50 to the following record: CSc1c(Cl)cccc1Nc1c(-c2ccnc(N)n2)[nH]c2c1C(=O)NCC2 [Compound 715]
6.00 to 7.00

Please report the measured pIC50 for COc1c(Cl)cccc1Nc1c(-c2ccnc(NC[C@@H]3COCCO3)n2)[nH]c2c1C(=O)NCC2 [compound 724]
6.00 to 7.00

* * *

# key: entry, value: IC50
# assay-system: EGFR exon 20 ASV Ins V769_D770 (Ba/F3 cells) (Homo sapiens, UniProt P00533, INS769ASV)
# Construct: expressed in transfected cells; host or cells: Ba/F3 (murine pro-B cells), retroviral transduction, puromycin selection, IL3-independent pool
# Sequence (P00533 with tags, fused parts or gaps INS769ASV): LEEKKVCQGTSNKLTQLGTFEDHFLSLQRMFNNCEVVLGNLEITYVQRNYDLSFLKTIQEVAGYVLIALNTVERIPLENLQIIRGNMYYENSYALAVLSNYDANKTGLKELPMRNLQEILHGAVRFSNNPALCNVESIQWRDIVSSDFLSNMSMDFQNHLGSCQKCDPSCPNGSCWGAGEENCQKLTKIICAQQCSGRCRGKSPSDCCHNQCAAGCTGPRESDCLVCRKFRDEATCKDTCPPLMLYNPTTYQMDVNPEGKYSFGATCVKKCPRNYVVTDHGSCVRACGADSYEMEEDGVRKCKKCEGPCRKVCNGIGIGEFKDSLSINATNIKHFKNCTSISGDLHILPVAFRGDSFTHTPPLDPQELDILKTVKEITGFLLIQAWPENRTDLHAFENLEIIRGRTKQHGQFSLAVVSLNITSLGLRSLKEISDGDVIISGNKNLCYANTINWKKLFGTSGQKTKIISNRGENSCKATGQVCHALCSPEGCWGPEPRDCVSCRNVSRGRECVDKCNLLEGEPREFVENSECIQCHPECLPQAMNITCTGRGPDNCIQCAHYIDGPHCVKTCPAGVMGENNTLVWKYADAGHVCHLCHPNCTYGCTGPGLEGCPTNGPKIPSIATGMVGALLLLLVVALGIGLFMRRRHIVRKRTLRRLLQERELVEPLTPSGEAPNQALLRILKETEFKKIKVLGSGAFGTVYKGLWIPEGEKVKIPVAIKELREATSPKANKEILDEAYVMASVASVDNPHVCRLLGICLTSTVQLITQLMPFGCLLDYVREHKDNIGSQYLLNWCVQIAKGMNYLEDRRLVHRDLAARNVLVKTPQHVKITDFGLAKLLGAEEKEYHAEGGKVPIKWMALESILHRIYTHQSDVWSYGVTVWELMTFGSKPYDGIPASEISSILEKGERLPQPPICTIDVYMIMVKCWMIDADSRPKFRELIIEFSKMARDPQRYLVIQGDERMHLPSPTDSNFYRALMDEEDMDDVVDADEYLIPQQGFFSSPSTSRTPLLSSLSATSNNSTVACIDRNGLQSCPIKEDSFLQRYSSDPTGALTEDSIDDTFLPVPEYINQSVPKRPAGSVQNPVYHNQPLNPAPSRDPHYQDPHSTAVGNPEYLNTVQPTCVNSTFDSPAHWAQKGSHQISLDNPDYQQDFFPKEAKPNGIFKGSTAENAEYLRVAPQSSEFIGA
# protocol: Inhibitor activity on EGFR-dependent cell growth (CellTiter-Glo, 72 h), Ba/F3 EGFR exon 20 ASV Ins
# Type: cell-based
# details: read-out: BaF3 ASV IC50

Use the examples below as a reference point.
> print(dat)
                                   molecule                              assay.system  result.type  reported.result
1  COc1c(Cl)cccc1Nc1c(-c2ccncc2F)[nH]c2c1C(=O)NC[C@@H]2CC(=O)N(C)C [Compound 488]  EGFR exon 20 ASV Ins V769_D770 (Ba/F3 cells) (Homo sapiens, UniProt P00533, INS769ASV)         IC50         < 0.1 µM
2  COc1ncc2nccc(-c3[nH]c4c(c3Nc3cc(F)cc(Cl)c3OC)C(=O)NCC4)c2n1 [Compound 792]  EGFR exon 20 ASV Ins V769_D770 (Ba/F3 cells) (Homo sapiens, UniProt P00533, INS769ASV)         IC50         < 0.1 µM
3  COc1c(Cl)cccc1Nc1c(-c2ccncc2F)[nH]c2c1C(=O)NC[C@]21CCN(C(C)=O)C1 [compound 491]  EGFR exon 20 ASV Ins V769_D770 (Ba/F3 cells) (Homo sapiens, UniProt P00533, INS769ASV)         IC50           > 1 µM
4  C=CC(=O)N1CCC2(CC1)CNC(=O)c1c2[nH]c(-c2ccncc2F)c1Nc1cccc(F)c1CC [Compound 557]  EGFR exon 20 ASV Ins V769_D770 (Ba/F3 cells) (Homo sapiens, UniProt P00533, INS769ASV)         IC50         < 0.1 µM
5  COc1c(Cl)cccc1Nc1c(-c2ccnc3c2OCCN3)[nH]c2c1C(=O)NCC2 [compound 292]  EGFR exon 20 ASV Ins V769_D770 (Ba/F3 cells) (Homo sapiens, UniProt P00533, INS769ASV)         IC50      0.1 to 1 µM

Recall and state the measured IC50 for COc1c(F)cccc1Nc1c(-c2ccnc3ccc(NC4(C)CC4)nc23)[nH]c2c1C(=O)NCC2 [Compound 695, formic acid] .
< 0.1 µM

Report measured IC50; entry is COc1c(Cl)cccc1Nc1c(-c2ccnc3cc(F)cnc23)[nH]c2c1C(=O)NCC2 [Compound 826]
< 0.1 µM

Please indicate IC50 recorded for COc1c(F)cccc1Nc1c(-c2nc(N)ncc2F)[nH]c2c1C(=O)NCC2 [Compound 688]
> 1 µM

Provide only the value of recorded IC50 for COc1ccc2nccc(-c3[nH]c4c(c3Nc3cccc(Cl)c3OC)C(=O)NC[C@H]4CCF)c2n1 [Compound 745]
< 0.1 µM

Give IC50 for the following molecule: COc1ncc2nccc(-c3[nH]c4c(c3Nc3cccc(F)c3OC)C(=O)NCC43CC3)c2n1 [compound 379]
< 0.1 µM

Hello, please tell me recorded IC50 for this one: COc1c(Cl)cccc1Nc1c(-c2ncnc3[nH]ccc23)[nH]c2c1C(=O)NCC2 [compound 289]
> 1 µM

Specify reported IC50 for the molecule shown: COc1c(F)cccc1Nc1c(-c2ccncc2F)[nH]c2c1C(=O)NC[C@@H]2C[C@H]1CCO1 [Compound 422c]
0.1 to 1 µM

Name the recorded IC50 of the molecule listed here: COc1c(Cl)cccc1Nc1c(-c2ccncn2)[nH]c2c(C[C@@H]3COCCO3)c[nH]c(=O)c12 [compound 656]
< 0.1 µM

Read the entry CCc1c(F)cccc1Nc1c(-c2ccnc3cnc(OC)nc23)[nH]c2c1C(=O)NCC2 [Compound 791] and write its reported IC50.
< 0.1 µM

Determine its reported IC50: COc1c(F)cccc1Nc1c(-c2ccncc2F)[nH]c2c1C(=O)NC[C@@H]2C[C@@H]1CCO1 [Compound 422b]
0.1 to 1 µM
